test system: Cricetinae gen. sp.; experiment: Local subcutaneous administration (1 mg); Expressed as weight (mg); format: functional
Recorded Weight for the following molecules
State the result as a value with its unit after it.

Worked cases, Weight given:
1) CCC(=O)O[C@H]1CC[C@H]2[C@@H]3CCC4=CC(=O)CC[C@]4(C)[C@H]3CC[C@]12C.CCC12CCC3=C(C)C(=O)CCC3C1CCC2O; 31.9 mg
2) CC1=C2CCC3(C)C(O)CCC3C2CCC1=O.CCC(=O)O[C@H]1CC[C@H]2[C@@H]3CCC4=CC(=O)CC[C@]4(C)[C@H]3CC[C@]12C; 36.8 mg
3) CCC(=O)O[C@H]1CC[C@H]2[C@@H]3CCC4=CC(=O)CC[C@]4(C)[C@H]3CC[C@]12C.CCC1=C2CCC3(C)C(O)CCC3C2CCC1=O; 27.8 mg
4) CC1(C)C(=O)CCC2C1CCC1(C)C(O)CCC21.CCC(=O)O[C@H]1CC[C@H]2[C@@H]3CCC4=CC(=O)CC[C@]4(C)[C@H]3CC[C@]12C; 28.4 mg

Now for the molecule whose Weight we want.
Recall the recorded Weight for CCC(=O)O[C@H]1CC[C@H]2[C@@H]3CCC4=CC(=O)CC[C@]4(C)[C@H]3CC[C@]12C.CCC1=C2CCC3(C)C(OC(C)=O)CCC3C2CCC1=O with Cricetinae gen. sp. and state it.
16.8 mg
